Quick reference for Relative Affinity among some binders
# measuredOn: T1, sIL-6R (soluble IL-6 receptor; SBH Sciences) (human, UniProt P08887 20-365)
# T1 construct: also called human IL-6R
# T1 sequence: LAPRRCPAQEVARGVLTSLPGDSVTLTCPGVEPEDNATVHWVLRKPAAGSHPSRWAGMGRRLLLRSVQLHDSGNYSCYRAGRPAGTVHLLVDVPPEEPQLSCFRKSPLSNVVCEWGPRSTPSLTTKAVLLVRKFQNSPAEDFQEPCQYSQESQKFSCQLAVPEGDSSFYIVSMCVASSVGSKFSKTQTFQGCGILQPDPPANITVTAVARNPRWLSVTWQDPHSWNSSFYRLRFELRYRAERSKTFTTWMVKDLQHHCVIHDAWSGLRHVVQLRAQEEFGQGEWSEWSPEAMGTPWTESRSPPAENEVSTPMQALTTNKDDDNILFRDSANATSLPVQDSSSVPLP
# assayName: SPR (BIAcore 3000), antibody on chip, sIL-6R analyte, 25 C

stdin: Can you look up the measured Relative Affinity of 239# (antibody, human IgG1, kappa, V domains shown) VH: QVQLQESGPGLVRPSQTLSLTCTVSGYSITSDHAWSWVRQPPGRGLEWIGYISYSGMITYNPSLKSRVTMLRDTSKNQFSLRLSSVTAADTAVYYCARCLARATAMDYWGQGSLVTVSS VL: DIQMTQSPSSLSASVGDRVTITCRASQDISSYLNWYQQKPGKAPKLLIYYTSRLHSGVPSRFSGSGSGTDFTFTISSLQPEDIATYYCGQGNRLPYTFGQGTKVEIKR for me?
stdout: 19.3 fold vs 25 (Tocilizumab)

stdin: Lookup 225# (antibody, human IgG1, kappa, V domains shown) VH: QVQLQESGPGLVRPSQTLSLTCTVSGYSITSDHAWSWVRQPPGRGLEWIGYISYSGMITYNPSLKSRVTMLRDTSKNQFSLRLSSVTAADTAVYYCARCLARTTAMDYWGQGSLVTVSS VL: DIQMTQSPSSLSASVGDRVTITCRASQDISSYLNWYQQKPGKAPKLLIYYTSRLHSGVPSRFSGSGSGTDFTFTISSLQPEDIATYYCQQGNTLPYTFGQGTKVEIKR
stdout: 4.9 fold vs 25 (Tocilizumab)
